Values were extracted from patent US4315014A.

Test system: Pseudomonas aeruginosa #28
Assay: Minimal Inhibitory Concentration, Pseudomonas aeruginosa #28
Type: cell-based
Measurement Name: MIC (µg/mL)

- Record Smiles: "CC1(C)S[C@@H]2[C@H](NC(=O)[C@H](NC(=O)c3ccc(-c4cccc(NS(=O)(=O)c5cccnc5)c4)[nH]c3=O)c3ccccc3)C(=O)N2[C@H]1C(=O)O"
  Unit Info: "µg/mL"
  Recorded Result: 12.5
- Record Smiles: "CC1(C)S[C@@H]2[C@H](NC(=O)[C@H](NC(=O)c3ccc(-c4ccc(NS(=O)(=O)c5cccnc5)cc4)[nH]c3=O)c3ccccc3)C(=O)N2[C@H]1C(=O)O"
  Unit Info: "µg/mL"
  Recorded Result: 12.5
- Record Smiles: "CC1(C)S[C@@H]2[C@H](NC(=O)[C@H](NC(=O)c3ccc(-c4ccc(NS(=O)(=O)C(F)(F)F)cc4)[nH]c3=O)c3ccc(O)cc3)C(=O)N2[C@H]1C(=O)O"
  Unit Info: "µg/mL"
  Recorded Result: 12.5
- Record Smiles: "CCCS(=O)(=O)Nc1ccc(-c2ccc(C(=O)N[C@@H](C(=O)N[C@@H]3C(=O)N4[C@@H]3SC(C)(C)[C@@H]4C(=O)O)c3ccccc3)c(=O)[nH]2)cc1"
  Unit Info: "µg/mL"
  Recorded Result: 3.1
- Record Smiles: "CC(=O)OCCCS(=O)(=O)Nc1ccc(-c2ccc(C(=O)N[C@@H](C(=O)N[C@@H]3C(=O)N4[C@@H]3SC(C)(C)[C@@H]4C(=O)O)c3ccccc3)c(=O)[nH]2)cc1"
  Unit Info: "µg/mL"
  Recorded Result: 6.3
- Record Smiles: "CC1(C)S[C@@H]2[C@H](NC(=O)[C@H](NC(=O)c3ccc(-c4ccc(NS(=O)(=O)CCc5ccncc5)cc4)[nH]c3=O)c3ccccc3)C(=O)N2[C@H]1C(=O)O"
  Unit Info: "µg/mL"
  Recorded Result: 6.3
